Experiment: in vitro
Details: rat, gh3-tre-luc cells, AC50 (uM) modified / 1000
Where a name gives a salt, the structure may show the parent alone.
PARAMETER_MEASURED: CC50 at 24 h

[[record]]
compound = "CC[C@H](C)COC(=O)/C=C/c1ccc(N=Cc2ccc(OC)cc2)cc1"
parameter_measured = "CC50 at 24 h"
measured_result = "> 90 µM"

[[record]]
compound = "CC(C)C/C=C(/C=O)c1ccccc1 [5-Methyl-2-phenyl-2-hexenal]"
parameter_measured = "CC50 at 24 h"
measured_result = "64.6 µM"

[[record]]
compound = "CNC(=O)OCc1cccc(COC(=O)NC)n1 [Pyricarbate]"
parameter_measured = "CC50 at 24 h"
measured_result = "> 50 µM"

[[record]]
compound = "CC1(C)CC(N=C=O)CC(C)(CN=C=O)C1 (stereo not drawn) [Isophorone diisocyanate]"
parameter_measured = "CC50 at 24 h"
measured_result = "> 90 µM"

[[record]]
compound = "CCS(=O)(=O)CCn1c([N+](=O)[O-])cnc1C [Tinidazole]"
parameter_measured = "CC50 at 24 h"
measured_result = "> 20 µM"

[[record]]
compound = "O=C(O)c1ccccc1C(c1ccc(O)cc1)c1ccc(O)cc1 [Phenolphthalin]"
parameter_measured = "CC50 at 24 h"
measured_result = "> 90 µM"

[[record]]
compound = "Cc1ccc(Cl)cc1Cl [2,4-Dichlorotoluene]"
parameter_measured = "CC50 at 24 h"
measured_result = "> 90 µM"

[[record]]
compound = "C[N+]1(C)CCC(=C(c2ccccc2)c2ccccc2)CC1 [Diphemanil methylsulfate]"
parameter_measured = "CC50 at 24 h"
measured_result = "> 20 µM"

[[record]]
compound = "COC(=O)N(C(=O)N1CO[C@@]2(C(=O)OC)Cc3cc(Cl)ccc3C2=N1)c1ccc(OC(F)(F)F)cc1 [Indoxacarb]"
parameter_measured = "CC50 at 24 h"
measured_result = "> 70 µM"

[[record]]
compound = "C=C(C)C(=O)OCCCCCC [Hexyl methacrylate]"
parameter_measured = "CC50 at 24 h"
measured_result = "> 90 µM"

[[record]]
compound = "COC(c1ccccc1)(c1ccccc1)[C@H](Oc1nc(C)cc(C)n1)C(=O)O [Ambrisentan]"
parameter_measured = "CC50 at 24 h"
measured_result = "> 50 µM"

[[record]]
compound = "O=C(O)c1cc(-c2ccc(F)cc2F)ccc1O [Diflunisal]"
parameter_measured = "CC50 at 24 h"
measured_result = "> 20 µM"

[[record]]
compound = "CC(C)CCCCCCOC(=O)CCCCC(=O)OCCCCCCC(C)C [Hexanedioic acid, diisononyl ester]"
parameter_measured = "CC50 at 24 h"
measured_result = "> 90 µM"

[[record]]
compound = "CNCC[C@@H](Oc1ccccc1C)c1ccccc1 [Atomoxetine hydrochloride]"
parameter_measured = "CC50 at 24 h"
measured_result = "44.9 µM"

[[record]]
compound = "O=C(O)CC/C=C\\CC[C@@H]1[C@@H](N2CCCCC2)[C@@H](O)C[C@@H]1OCc1ccc(-c2ccccc2)cc1 [Vapiprost hydrochloride]"
parameter_measured = "CC50 at 24 h"
measured_result = "> 50 µM"

[[record]]
compound = "C[Si](O[Si](C)(C)C)O[Si](C)(C)C"
parameter_measured = "CC50 at 24 h"
measured_result = "> 90 µM"

[[record]]
compound = "CC(=O)OC1CCC(C(C)(C)C)CC1 (stereo not drawn) [4-tert-Butylcyclohexyl acetate]"
parameter_measured = "CC50 at 24 h"
measured_result = "> 90 µM"

[[record]]
compound = "O=P(O)(O)C(O)(Cc1cnc2ccccn12)P(=O)(O)O [Minodronic acid]"
parameter_measured = "CC50 at 24 h"
measured_result = "> 50 µM"

[[record]]
compound = "CC(C)CCC[C@@H](C)[C@H]1CC[C@H]2[C@@H]3CC=C4C[C@@H](O)CC[C@]4(C)[C@H]3CC[C@]12C [Cholesterol]"
parameter_measured = "CC50 at 24 h"
measured_result = "> 50 µM"

[[record]]
compound = "COc1nc(C)nc(Cl)c1N=C1NCCN1 [Moxonidine]"
parameter_measured = "CC50 at 24 h"
measured_result = "> 20 µM"

[[record]]
compound = "O=C(O)c1cc2ccccc2nc1C(=O)O [2,3-Quinolinedicarboxylic acid]"
parameter_measured = "CC50 at 24 h"
measured_result = "> 90 µM"

[[record]]
compound = "COC(=O)Nc1nc2ccc(C(=O)c3ccccc3)cc2[nH]1 [Mebendazole]"
parameter_measured = "CC50 at 24 h"
measured_result = "0.337 µM"

[[record]]
compound = "CC(C)(C)NCCO [2-(tert-Butylamino)ethanol]"
parameter_measured = "CC50 at 24 h"
measured_result = "> 90 µM"

[[record]]
compound = "Cc1ncc(C[n+]2csc(CCOP(=O)(O)O)c2C)c(N)n1 [Monophosphothiamine]"
parameter_measured = "CC50 at 24 h"
measured_result = "> 50 µM"


The measurements presented in this section are drawn from paper PMC6792352.
